experimental.system: Fyn (UniProt P06241)
Sequence (P06241 whole entry, looked up): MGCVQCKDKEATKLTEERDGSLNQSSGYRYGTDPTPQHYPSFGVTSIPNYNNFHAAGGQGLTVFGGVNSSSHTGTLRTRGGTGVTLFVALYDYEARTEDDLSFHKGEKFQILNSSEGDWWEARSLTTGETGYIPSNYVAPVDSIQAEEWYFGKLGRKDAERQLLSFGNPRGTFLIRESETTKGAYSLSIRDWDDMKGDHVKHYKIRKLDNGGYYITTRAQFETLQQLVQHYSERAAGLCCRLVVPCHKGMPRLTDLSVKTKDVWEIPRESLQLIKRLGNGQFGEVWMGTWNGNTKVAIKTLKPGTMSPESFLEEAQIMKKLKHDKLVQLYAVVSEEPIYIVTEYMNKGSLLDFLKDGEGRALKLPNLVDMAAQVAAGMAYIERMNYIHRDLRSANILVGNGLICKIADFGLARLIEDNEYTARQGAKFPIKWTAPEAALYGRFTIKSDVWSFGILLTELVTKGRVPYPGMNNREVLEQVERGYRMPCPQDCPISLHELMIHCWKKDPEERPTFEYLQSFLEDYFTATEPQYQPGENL
procedure.text: phosphorylation enrichment, bacterial display (enrichment ratio); higher = better substrate or ligand; peptides without Tyr show the background;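 note: 11-residue human phosphosite peptides and single-mutation variants displayed on the E. coli surface, counted by deep sequencing, each peptide's frequency after selection divided by its frequency in the unselected input library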;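 note: frequency after pTyr selection over input frequency; kinase dosed for 20-30% of maximal phosphorylation in three min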
Recorded phosphorylation enrichment split into classes low bin = under 0.4, mid bin = from 0.4 up to 0.5, high bin = 0.5 and over

Take a look at these entries with their results.
- AQADIYKANFQ [IKBKG_Y308_D311N]: high bin
- DNLNNYVFQGQ [GRIN2A_Y978]: high bin
- RSLLQYGGSAN [ANK1_Y624]: high bin

Input line: State the band of PEADKYRLPFA [FGG_Y300_T303P_YF]
Output line: high bin

Input line: Band assignment needed for VPFAQYLAMNK [HARS1_Y138_R137Q] please.
Output line: mid bin

Input line: Assign a category based on measured phosphorylation enrichment for KASRKYFAMKI [AKT3_Y173_G171R_YF] and give only the class name.
Output line: low bin

Input line: Sort into band: ALAPKYHGGGG [HBB_Y146_H144P]
Output line: low bin

Input line: Which of the defined bands does the recorded phosphorylation enrichment of AGRSGYDNREI [BCL2_Y9_T7S] sit within?
Output line: mid bin

Input line: Hey, which category is VIIVLYFSLWK [SLC6A2_Y249_V245I] in, do you know?
Output line: low bin
